I'd appreciate it if you could supply viability, T/C values for the items below.
# Tested on: 454973-116-R2-J3-PDC complex spheroid viability
# Experiment Notes: Anticancer human tumor 454973-116-R2-J3-PDC patient-derived pancreatic carcinoma cell line growth inhibition [POLQ]
# Condition Summary: second compound 1 µM; first compound 0.316 µM; hits give low values
Numbers only, in %.

Please review the following examples before continuing.
CCc1c2c(nc3ccc(O)cc13)-c1cc3c(c(=O)n1C2)COC(=O)[C@]3(O)CC + Cc1cccc(N(C)C(=O)C2C(O)CCN2c2nc(C)cc(C(F)(F)F)c2C#N)c1
2.24
COc1ccc([C@@H](O)c2cc(-c3ncnc4cc(N5CCOCC5)ccc34)c(F)cc2Cl)nn1 + COC1C(OC(N)=O)C(O)C(Oc2ccc3c(O)c(NC(=O)c4ccc(O)c(CC=C(C)C)c4)c(=O)oc3c2C)OC1(C)C
115
COc1ccc([C@@H](O)c2cc(-c3ncnc4cc(N5CCOCC5)ccc34)c(F)cc2Cl)nn1 + Nc1ccc(C#CCN(C(=O)Cc2ncc(C(F)(F)F)cc2C(F)(F)F)c2ccc(F)cc2)nn1
104

Hello, I would appreciate it if you could give viability, T/C for each entry below.
1. COc1ccc([C@@H](O)c2cc(-c3ncnc4cc(N5CCOCC5)ccc34)c(F)cc2Cl)nn1 + Cc1cccc(N(C)C(=O)C2C(O)CCN2c2nc(C)cc(C(F)(F)F)c2C#N)c1
2. CCc1cc2c(N3CCc4c(cc(Cn5ccnc5)cc4-c4cn(C)nc4C(F)(F)F)C3=O)ccnc2c(OC)n1 + Cc1cccc(N(C)C(=O)C2C(O)CCN2c2nc(C)cc(C(F)(F)F)c2C#N)c1

Reply:
107
96

* * *

# Test system: 454973-116-R2-J3-PDC complex spheroid viability
# Experiment Notes: Anticancer human tumor 454973-116-R2-J3-PDC cell line growth inhibition [POLQ];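 further: spheroids exposed to drugs for seven days before measurement; percent viability relative to DMSO vehicle control wells taken as 100%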
# Condition Summary: second compound 10 µM; first compound 0.1 µM; hits give low values
Measured Parameter: viability, T/C (%)
Give bare numbers, in %.

CCc1c2c(nc3ccc(O)cc13)-c1cc3c(c(=O)n1C2)COC(=O)[C@]3(O)CC + Nc1ccc(C#CCN(C(=O)Cc2ncc(C(F)(F)F)cc2C(F)(F)F)c2ccc(F)cc2)nn1
2.67
COc1cccc2c1C(=O)c1c(O)c3c(c(O)c1C2=O)CC(O)(C(=O)CO)CC3OC1CC(N)C(O)C(C)O1 (stereo not given) + Nc1ccc(C#CCN(C(=O)Cc2ncc(C(F)(F)F)cc2C(F)(F)F)c2ccc(F)cc2)nn1
12.7
COc1cccc(OCCCN)c1-c1cc(Nc2cnc(C#N)cn2)n[nH]1 + COC1C(OC(N)=O)C(O)C(Oc2ccc3c(O)c(NC(=O)c4ccc(O)c(CC=C(C)C)c4)c(=O)oc3c2C)OC1(C)C
6.01
Nc1ccn(C2OC(CO)C(O)C2(F)F)c(=O)n1 (stereo not given) + COC1C(OC(N)=O)C(O)C(Oc2ccc3c(O)c(NC(=O)c4ccc(O)c(CC=C(C)C)c4)c(=O)oc3c2C)OC1(C)C
10.8
CNCc1ccc(-c2[nH]c3cc(F)cc4c3c2CCNC4=O)cc1 + COC1C(OC(N)=O)C(O)C(Oc2ccc3c(O)c(NC(=O)c4ccc(O)c(CC=C(C)C)c4)c(=O)oc3c2C)OC1(C)C
97.3
COc1ccc([C@@H](O)c2cc(-c3ncnc4cc(N5CCOCC5)ccc34)c(F)cc2Cl)nn1 + COC1C(OC(N)=O)C(O)C(Oc2ccc3c(O)c(NC(=O)c4ccc(O)c(CC=C(C)C)c4)c(=O)oc3c2C)OC1(C)C
93.3
CC1COCCN1c1cc(C2(S(C)(=N)=O)CC2)nc(-c2ccnc3[nH]ccc23)n1 (stereo not given) + Nc1ccc(C#CCN(C(=O)Cc2ncc(C(F)(F)F)cc2C(F)(F)F)c2ccc(F)cc2)nn1
114
CCc1cc2c(N3CCc4c(cc(Cn5ccnc5)cc4-c4cn(C)nc4C(F)(F)F)C3=O)cc(C)nc2c(OC)n1 + Cc1cccc(N(C)C(=O)C2C(O)CCN2c2nc(C)cc(C(F)(F)F)c2C#N)c1
90.2

Hello, I would appreciate it if you could give viability, T/C for each entry below.
1. COc1cccc2c1C(=O)c1c(O)c3c(c(O)c1C2=O)CC(O)(C(=O)CO)CC3OC1CC(N)C(O)C(C)O1 (stereo not given) + COC1C(OC(N)=O)C(O)C(Oc2ccc3c(O)c(NC(=O)c4ccc(O)c(CC=C(C)C)c4)c(=O)oc3c2C)OC1(C)C
2. C#Cc1c(F)ccc2cc(O)cc(-c3ncc4c(N5CC6CCC(C5)N6)nc(OCC56CCCN5CC(F)C6)nc4c3F)c12 (stereo not given) + COC1C(OC(N)=O)C(O)C(Oc2ccc3c(O)c(NC(=O)c4ccc(O)c(CC=C(C)C)c4)c(=O)oc3c2C)OC1(C)C

Reply:
24.7
56.6
